# TARGET SYSTEM: DDR1 (Homo sapiens)
# Construct: purchased Carna Biosciences
# Sequence (Q08345 19-913): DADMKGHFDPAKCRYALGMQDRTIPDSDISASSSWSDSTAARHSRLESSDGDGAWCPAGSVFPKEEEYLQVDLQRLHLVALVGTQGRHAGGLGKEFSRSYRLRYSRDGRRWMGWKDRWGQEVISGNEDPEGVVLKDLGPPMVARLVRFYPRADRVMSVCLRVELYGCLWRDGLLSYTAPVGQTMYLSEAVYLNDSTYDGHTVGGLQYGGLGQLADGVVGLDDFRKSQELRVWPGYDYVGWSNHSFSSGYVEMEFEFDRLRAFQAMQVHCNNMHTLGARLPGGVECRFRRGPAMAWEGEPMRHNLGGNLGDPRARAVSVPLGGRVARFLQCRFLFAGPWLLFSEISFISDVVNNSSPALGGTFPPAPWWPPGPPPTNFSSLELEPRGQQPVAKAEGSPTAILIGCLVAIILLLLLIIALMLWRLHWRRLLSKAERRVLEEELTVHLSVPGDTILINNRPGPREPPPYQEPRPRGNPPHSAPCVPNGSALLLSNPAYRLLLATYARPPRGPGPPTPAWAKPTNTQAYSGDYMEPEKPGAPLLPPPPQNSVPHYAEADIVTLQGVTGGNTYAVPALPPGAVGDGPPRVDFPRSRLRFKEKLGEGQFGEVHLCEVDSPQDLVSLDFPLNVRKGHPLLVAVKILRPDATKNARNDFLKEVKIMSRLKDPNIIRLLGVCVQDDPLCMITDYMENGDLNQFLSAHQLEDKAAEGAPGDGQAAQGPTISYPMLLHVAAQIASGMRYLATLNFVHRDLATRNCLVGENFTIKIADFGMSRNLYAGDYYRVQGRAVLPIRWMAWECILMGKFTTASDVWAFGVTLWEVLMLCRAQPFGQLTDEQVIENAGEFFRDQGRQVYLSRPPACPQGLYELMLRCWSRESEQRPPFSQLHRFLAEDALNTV
# ASSAY NOTES: LanthaScreen Europium Kinase Binding assay, DDR1
# MEASUREMENT SETUP: 5 nM DDR1, 20 nM Kinase Tracer 178, 1 h at rt; Ki from IC50 by Cheng-Prusoff; read-out: Ki DDR1
pKi: −log10 of the molar value.
Answer each item with its documented pKi.

Request the reported pKi associated with COc1ncc(C(F)(F)F)cc1NC(=O)NC1CC2(C1)CN(C(=O)c1cnn3ccn(C)c13)C2
> 8.30

Request the reported pKi associated with COc1cc(-c2ccc3c(C(=O)N4CC5(CC(N(C)C(=O)Nc6cncc(C(F)(F)F)c6)C5)C4)cnn3c2)ccn1
> 8.30

Request the reported pKi associated with Cn1ccc2ncnc(C(=O)N3CC4(CC(NC(=O)Nc5cccc(C(F)(F)F)c5)C4)C3)c21
7.60 to 8.30

Request the reported pKi associated with CCN(C(=O)Nc1cc(F)cc(C(F)(F)F)c1)C1CC2(C1)CN(C(=O)c1cnn3ccn(C)c13)C2
> 8.30

Request the reported pKi associated with COc1ccc(OC(F)(F)F)cc1NC(=O)NC1CC2(C1)CN(C(=O)c1cnn3ccsc13)C2
> 8.30

Request the reported pKi associated with O=C(Nc1cccc(C(F)(F)F)c1)NC1CC2(C1)CN(C(=O)c1cnn3ccc(N4CCC(O)C4)cc13)C2 (stereo not drawn)
> 8.30

Request the reported pKi associated with COCCn1cc(-c2ccc3c(C(=O)N4CC5(CC(N(C)C(=O)Nc6cncc(C(F)(F)F)c6)C5)C4)cnn3c2)cn1
> 8.30

Request the reported pKi associated with COc1c(CO)cc(OC(F)(F)F)cc1NC(=O)N(C)C1CC2(C1)CN(c1cnc3[nH]ncc3c1)C2
> 8.30

Request the reported pKi associated with Cc1cc(NC(=O)N(C)C2CC3(C2)CN(C(=O)c2cnn4ccn(C)c24)C3)cc(C(F)(F)F)c1
> 8.30

Request the reported pKi associated with CN(C(=O)Nc1cccc(C(F)(F)F)c1)C1CC2(C1)CN(C(=O)c1ccnc3[nH]ncc13)C2
> 8.30

Request the reported pKi associated with CN(C(=O)Nc1cncc(OC(F)(F)F)c1)C1CC2(C1)CN(C(=O)c1cnn3ccncc13)C2
7.60 to 8.30

Request the reported pKi associated with Cn1ccn2ncc(C(=O)N3CC4(CC(NC(=O)Nc5cncc(OC(F)(F)F)c5)C4)C3)c12
> 8.30

Request the reported pKi associated with O=C(Nc1cccc(CC(F)(F)F)c1)NC1CC2(C1)CN(C(=O)c1ccnc3[nH]ncc13)C2
> 8.30

Request the reported pKi associated with CN(C(=O)Nc1cc(C(C)(C)C)on1)C1CC2(C1)CN(C(=O)c1cnn3ccn(C)c13)C2
7.60 to 8.30

Request the reported pKi associated with Cn1ccn2ncc(C(=O)N3CC4(CC(NC(=O)Nc5cc(C(F)(F)F)cc(C#N)n5)C4)C3)c12
> 8.30

Request the reported pKi associated with CC(C)(C)c1cc(NC(=O)NC2CC3(C2)CN(C(=O)c2cnn4ccsc24)C3)no1
> 8.30

Request the reported pKi associated with Cc1ccc(OC(F)(F)F)cc1NC(=O)OC1CC2(C1)CN(C(=O)c1cnn3ccn(C)c13)C2
> 8.30

Request the reported pKi associated with CN1CCN(c2ccc3ncc(C(=O)N4CC5(CC(NC(=O)Nc6cccc(C(F)(F)F)c6)C5)C4)n3c2)CC1
> 8.30

Request the reported pKi associated with Cc1ccc(OC(F)(F)F)cc1NC(=O)N(C)C1CC2(C1)CN(C(=O)c1cnn3ccn(C)c13)C2
> 8.30

Request the reported pKi associated with Cc1ncc(-c2ccc3c(C(=O)N4CC5(CC(N(C)C(=O)Nc6cncc(C(F)(F)F)c6)C5)C4)cnn3c2)cn1
7.60 to 8.30

Request the reported pKi associated with CN(C(=O)Nc1cncc(C(F)(F)F)c1)C1CC2(C1)CN(C(=O)c1cnn3ccncc13)C2
7.60 to 8.30

Request the reported pKi associated with Cn1ccn2ncc(C(=O)N3CC4(CC(NC(=O)Nc5ccc(F)c(C(F)(F)F)c5)C4)C3)c12
> 8.30

Request the reported pKi associated with CN(C(=O)Nc1cncc(OC(F)(F)F)c1)C1CC2(C1)CN(C(=O)c1ncnc3[nH]ccc13)C2
> 8.30

Request the reported pKi associated with CN(C(=O)Nc1cc(Br)ccn1)C1CC2(C1)CN(C(=O)c1cnn3ccn(C)c13)C2
> 8.30

Request the reported pKi associated with COc1ccc(OC(F)(F)F)cc1NC(=O)NC1CC2(C1)CN(C(=O)c1cnc3cnccn13)C2
> 8.30

Request the reported pKi associated with Cn1ccn2ncc(C(=O)N3CC4(CC(CC(=O)Nc5cc(C(F)(F)F)ccn5)C4)C3)c12
> 8.30

Request the reported pKi associated with COc1c(CO)cc(OC(F)(F)F)cc1NC(=O)NC1CC2(C1)CN(C(=O)c1cnn3ccncc13)C2
7.60 to 8.30

Request the reported pKi associated with Cn1ccn2ncc(C(=O)N3CC4(CC(OC(=O)Nc5cc(C(F)(F)F)ccn5)C4)C3)c12
> 8.30

Request the reported pKi associated with O=C(Nc1cccc(C(F)(F)F)c1)NC1CC2(C1)CN(C(=O)c1cnn3ccn(CC4COC4)c13)C2
> 8.30

Request the reported pKi associated with CN(C(=O)Nc1cc(C#N)cc(C(F)(F)F)c1)C1CC2(C1)CN(C(=O)c1cnn3ccn(C)c13)C2
> 8.30

====

# TARGET SYSTEM: DDR1 (Homo sapiens)
# Construct: purchased Carna Biosciences
# ASSAY NOTES: LanthaScreen Europium Kinase Binding assay, DDR1
# MEASUREMENT SETUP: 5 nM DDR1, 20 nM Kinase Tracer 178, 1 h at rt; Ki from IC50 by Cheng-Prusoff; read-out: Ki DDR1
Answer each item with its documented Ki.

Request the reported Ki associated with CCc1ncc(C(F)(F)F)cc1NC(=O)N(C)C1CC2(C1)CN(C(=O)c1cnn3ccn(C)c13)C2
5 to 25 nM

Request the reported Ki associated with CN(C(=O)Nc1cc(C(F)(F)F)ncn1)C1CC2(C1)CN(C(=O)c1cnn3ccn(C)c13)C2
5 to 25 nM

Request the reported Ki associated with COc1ccc(OC(F)(F)F)cc1NC(=O)NC1CC2(C1)CN(C(=O)c1cnc3cccnn13)C2
< 5 nM

Request the reported Ki associated with Cn1ccn2ncc(C(=O)N3CC4(CC(CC(=O)Nc5cncc(C(F)(F)F)c5)C4)C3)c12
< 5 nM

====

# TARGET SYSTEM: DDR2 (Homo sapiens, UniProt Q16832)
# Construct: purchased Life Technologies
# Sequence (Q16832 22-855): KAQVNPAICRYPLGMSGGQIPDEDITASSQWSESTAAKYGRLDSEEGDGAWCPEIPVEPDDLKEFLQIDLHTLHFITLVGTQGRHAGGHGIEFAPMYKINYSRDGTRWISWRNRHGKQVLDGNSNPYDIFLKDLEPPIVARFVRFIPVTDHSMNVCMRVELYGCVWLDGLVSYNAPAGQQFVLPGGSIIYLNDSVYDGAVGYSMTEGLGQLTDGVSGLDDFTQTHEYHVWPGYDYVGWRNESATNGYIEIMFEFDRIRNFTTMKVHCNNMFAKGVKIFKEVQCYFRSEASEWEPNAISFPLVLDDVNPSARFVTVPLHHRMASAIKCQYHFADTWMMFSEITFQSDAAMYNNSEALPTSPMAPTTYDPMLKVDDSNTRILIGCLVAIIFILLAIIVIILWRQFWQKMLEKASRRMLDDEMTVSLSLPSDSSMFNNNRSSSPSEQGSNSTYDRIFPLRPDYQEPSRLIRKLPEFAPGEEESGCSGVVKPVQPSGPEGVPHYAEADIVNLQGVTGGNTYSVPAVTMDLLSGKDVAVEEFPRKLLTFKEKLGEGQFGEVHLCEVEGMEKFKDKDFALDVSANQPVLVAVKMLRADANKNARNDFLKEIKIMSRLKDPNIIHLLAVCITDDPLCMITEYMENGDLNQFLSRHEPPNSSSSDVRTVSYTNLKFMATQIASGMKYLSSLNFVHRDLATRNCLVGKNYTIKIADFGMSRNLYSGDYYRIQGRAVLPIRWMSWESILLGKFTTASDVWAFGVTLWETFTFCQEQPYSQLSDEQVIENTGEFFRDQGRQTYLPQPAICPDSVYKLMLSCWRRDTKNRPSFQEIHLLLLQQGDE
# ASSAY NOTES: LanthaScreen Europium Kinase Binding assay, DDR2
# MEASUREMENT SETUP: 5 nM DDR2, 10 nM Kinase Tracer 178, 1 h at rt; Ki from IC50 by Cheng-Prusoff; read-out: Ki DDR2
# Method: DDR1 and DDR2 binding assays were performed using Life Technologies LanthaScreen™ Europium Kinase Binding assay. […] IC50 values were determined in GraphPad Prism 7.0 software, using 4 parameter model: log (inhibitor) vs. response. IC50 values were converted in Ki using the Cheng-Prusoff equation (Ki-IC50/(1+ [Tracer]/Kd).
Answer each item with its documented Ki.

Request the reported Ki associated with O=C(Nc1cccc(C(F)(F)F)c1)NC1CC2(C1)CN(c1cnc3[nH]ncc3c1)C2 [Example 138]
< 5 nM

Request the reported Ki associated with COc1ccc(OC(F)(F)F)cc1NC(=O)OC1CC2(C1)CN(C(=O)c1cnn3ccn(C)c13)C2 [Example 144]
5 to 25 nM

Request the reported Ki associated with CN(C(=O)Nc1cncc(C(C)(F)F)c1)C1CC2(C1)CN(C(=O)c1cnn3ccn(C)c13)C2 [Example 173]
25 to 100 nM

Request the reported Ki associated with CN(C(=O)Nc1cncc(C(F)(F)F)c1)C1CC2(C1)CN(C(=O)c1cnn3ccc(N4CCCC4)cc13)C2 [Example 214]
5 to 25 nM

Request the reported Ki associated with Cn1ccn2ncc(C(=O)N3CC4(CC(OC(=O)Nc5cc(C(F)(F)F)ccn5)C4)C3)c12 [Example 296]
5 to 25 nM

Request the reported Ki associated with Cn1ccn2ncc(C(=O)N3CC4(CC(CC(=O)Nc5cc(OC(F)(F)F)ccc5F)C4)C3)c12 [Example 276]
< 5 nM

Request the reported Ki associated with CN(C)Cc1ccc(NC(=O)NC2CC3(C2)CN(C(=O)c2ncnc4ccsc24)C3)cc1C(F)(F)F [Example 112]
5 to 25 nM

Request the reported Ki associated with O=C(Nc1cccc(CC(F)(F)F)c1)NC1CC2(C1)CN(C(=O)c1cnn3ccsc13)C2 [Example 31]
< 5 nM

Request the reported Ki associated with O=C(Nc1cncc(C(F)(F)F)c1)NC1CC2(C1)CN(c1cnc3[nH]ncc3c1)C2 [Example 304]
5 to 25 nM

Request the reported Ki associated with O=C(Nc1cccc(C(F)(F)F)c1)NC1CC2(C1)CN(c1nccn3cncc13)C2 [Example 149]
< 5 nM

Request the reported Ki associated with CC(C)(C)c1cc(NC(=O)NC2CC3(C2)CN(C(=O)c2cnn4ccsc24)C3)no1 [Example 20]
5 to 25 nM

Request the reported Ki associated with CN(C(=O)Nc1cc(F)cc(C(F)(F)F)c1)C1CC2(C1)CN(C(=O)c1cnn3ccsc13)C2 [Example 60]
< 5 nM

Request the reported Ki associated with Cn1ccn2ncc(C(=O)N3CC4(CC(NC(=O)Nc5cc(F)cc(C(F)(F)F)c5)C4)C3)c12 [Example 106]
< 5 nM

Request the reported Ki associated with CN(C(=O)Nc1cncc(C(F)(F)F)c1)C1CC2(C1)CN(C(=O)c1ncnc3[nH]ccc13)C2 [Example 206]
5 to 25 nM

Request the reported Ki associated with O=C(Nc1cc(C(F)(F)F)ncn1)OC1CC2(C1)CN(C(=O)c1cnn3ccsc13)C2 [Example 292]
5 to 25 nM

Request the reported Ki associated with Cc1cc2ncnc(C(=O)N3CC4(CC(NC(=O)Nc5cccc(C(F)(F)F)c5)C4)C3)c2s1 [Example 99]
< 5 nM
